Value source: patent US12290519B2

- TEST SUMMARY: Hydrolysis rate / drug release rate of the compounds (release of JAK inhibitor, HPLC)
- Type: physicochemical
- REPORTED CONDITIONS: % release of JAK inhibitor from sample in acetonitrile/water=7/3 (v/v), 37° C. constant temperature shaker, sampled days 1-4, HPLC
Criterion: Release Rate (%/day) meeting or surpassing 0.2 %/day. Met: Fulfilled. Not met: Not fulfilled.

CCS(=O)(=O)N1CC(CC#N)(n2cc(-c3ncnc4c3ccn4C(=O)C(C)c3ccc(CC4CCCC4=O)cc3)cn2)C1 (centres unmarked) [Ex. 22]; Fulfilled
CCS(=O)(=O)N1CC(CC#N)(n2cc(-c3ncnc4c3ccn4COC(=O)c3ccccc3Nc3cccc(Cl)c3C)cn2)C1 [Ex. 81]; Not fulfilled
CCC(C(=O)OCn1ccc2c(N(C)C3CCC(CS(=O)(=O)NC)CC3)ncnc21)c1ccc(N2Cc3ccccc3C2=O)cc1 (centres unmarked) [Ex. 117]; Not fulfilled
CC(C(=O)OCn1ccc2c(-c3cnn([C@H](CC#N)C4CCCC4)c3)ncnc21)c1ccc(-c2ccccc2)c(F)c1 (some centres unmarked) [Ex. 100]; Fulfilled
N#CC[C@H](C1CCCC1)n1cc(-c2ncnc3c2ccn3C(=O)Cc2ccccc2Nc2c(Cl)cccc2Cl)cn1 [Ex. 75]; Fulfilled
Cc1c(Cl)cccc1Nc1ccccc1C(=O)n1ccc2c(-c3cnn([C@H](CC#N)C4CCCC4)c3)ncnc21 [Ex. 57]; Fulfilled
CCC(C(=O)OCn1ccc2c(-c3cnn([C@H](CC#N)C4CCCC4)c3)ncnc21)c1ccc(N2Cc3ccccc3C2=O)cc1 (some centres unmarked) [Ex. 105]; Not fulfilled
CCS(=O)(=O)N1CC(CC#N)(n2cc(-c3ncnc4c3ccn4C(=O)C(C)c3cccc(Oc4ccccc4)c3)cn2)C1 (centres unmarked) [Ex. 21]; Fulfilled
COc1ccc2c(c1)c(CC(=O)OCn1ccc3c(N(C)[C@H]4CN(C(=O)CC#N)CC[C@H]4C)ncnc31)c(C)n2C(=O)c1ccc(Cl)cc1 [Ex. 55]; Not fulfilled
CC(=O)Nc1ccc(CC(=O)n2ccc3c(-c4cnn([C@H](CC#N)C5CCCC5)c4)ncnc32)cc1 [Ex. 78]; Fulfilled
CC(C(=O)n1ccc2c(-c3cnn([C@H](CC#N)C4CCCC4)c3)ncnc21)c1cccc(Oc2ccccc2)c1 (some centres unmarked) [Ex. 54]; Fulfilled
CCS(=O)(=O)N1CC(CC#N)(n2cc(-c3ncnc4c3ccn4COC(=O)[C@@H](C)c3ccc4cc(OC)ccc4c3)cn2)C1 [Ex. 61]; Not fulfilled
CNS(=O)(=O)C[C@H]1CC[C@H](N(C)c2ncnc3c2ccn3COC(=O)[C@@H](C)c2ccc(CC(C)C)cc2)CC1 [Ex. 88]; Not fulfilled
CC(=O)Oc1ccccc1C(=O)OCn1ccc2c(N(C)[C@H]3CN(C(=O)CC#N)CC[C@H]3C)ncnc21 [Ex. 56]; Not fulfilled

###

- TEST SUMMARY: Hydrolysis rate / drug release rate of the compounds (release of JAK inhibitor, HPLC)
- Assay type: physicochemical
- REPORTED CONDITIONS: % release of JAK inhibitor from sample in acetonitrile/water=7/3 (v/v), 37° C. constant temperature shaker, sampled days 1-4, HPLC
MEASUREMENT TYPE: Release Rate (%/day)

CCc1cccc2c3c([nH]c12)C(CC)(CC(=O)n1ccc2c(N(C)C4CCC(CS(=O)(=O)NC)CC4)ncnc21)OCC3 (stereo not drawn); 1.05 %/day
CCS(=O)(=O)N1CC(CC#N)(n2cc(-c3ncnc4c3ccn4COC(=O)c3ccccc3Nc3cccc(C)c3C)cn2)C1; 0.003 %/day
CCS(=O)(=O)N1CC(CC#N)(n2cc(-c3ncnc4c3ccn4C(=O)c3ccccc3Nc3cccc(Cl)c3C)cn2)C1; 0.62 %/day
CC(C)Cc1ccc([C@H](C)C(=O)OCn2ccc3c(-c4cnn([C@H](CC#N)C5CCCC5)c4)ncnc32)cc1; <0.01 %/day
Cc1cccc(Nc2ccccc2C(=O)n2ccc3c(-c4cnn([C@H](CC#N)C5CCCC5)c4)ncnc32)c1C; 0.43 %/day
CC(C(=O)n1ccc2c(N(C)[C@H]3CN(C(=O)CC#N)CC[C@H]3C)ncnc21)c1ccc(CC2CCCC2=O)cc1 (stereo partly drawn); 9.17 %/day
CNS(=O)(=O)CC1CCC(N(C)c2ncnc3c2ccn3C(=O)C(C)c2cccc(C(=O)c3ccccc3)c2)CC1 (stereo not drawn); 18.42 %/day
COc1ccc2c(c1)c(CC(=O)OCn1ccc3c(-c4cnn([C@H](CC#N)C5CCCC5)c4)ncnc31)c(C)n2C(=O)c1ccc(Cl)cc1; 0.45 %/day
CC(C(=O)OCn1ccc2c(-c3cnn([C@H](CC#N)C4CCCC4)c3)ncnc21)c1cccc(C(=O)c2ccccc2)c1 (stereo partly drawn); 0.21 %/day
CCC(C(=O)OCn1ccc2c(-c3cnn(C4(CC#N)CN(S(=O)(=O)CC)C4)c3)ncnc21)c1ccc(N2Cc3ccccc3C2=O)cc1 (stereo not drawn); 0.05 %/day
CC(C)Cc1ccc([C@H](C)C(=O)n2ccc3c(N(C)[C@H]4CN(C(=O)CC#N)CC[C@H]4C)ncnc32)cc1; 8.5 %/day
CC(C(=O)OCn1ccc2c(N(C)[C@H]3CN(C(=O)CC#N)CC[C@H]3C)ncnc21)c1cccc(Oc2ccccc2)c1 (stereo partly drawn); 0.1 %/day
CNS(=O)(=O)CC1CCC(N(C)c2ncnc3c2ccn3COC(=O)Cc2c(C)n(C(=O)c3ccc(Cl)cc3)c3ccc(OC)cc23)CC1 (stereo not drawn); 0.42 %/day
COc1ccc2cc([C@H](C)C(=O)OCn3ccc4c(-c5cnn([C@H](CC#N)C6CCCC6)c5)ncnc43)ccc2c1; 0.01 %/day
CCS(=O)(=O)N1CC(CC#N)(n2cc(-c3ncnc4c3ccn4COC(=O)Cc3ccc(NC(C)=O)cc3)cn2)C1; 0.06 %/day
CCS(=O)(=O)N1CC(CC#N)(n2cc(-c3ncnc4c3ccn4COC(=O)[C@@H](C)c3ccc(CC(C)C)cc3)cn2)C1; <0.01 %/day
COc1ccc2cc([C@H](C)C(=O)n3ccc4c(N(C)[C@H]5CN(C(=O)CC#N)CC[C@H]5C)ncnc43)ccc2c1; 9.82 %/day
CNS(=O)(=O)C[C@H]1CC[C@H](N(C)c2ncnc3c2ccn3COC(=O)[C@@H](C)c2ccc3cc(OC)ccc3c2)CC1; 0.16 %/day
CC(C)Cc1ccc([C@H](C)C(=O)n2ccc3c(N4CC[C@]5(C4)[C@@H](C)CN5C(=O)CC#N)ncnc32)cc1; 8.10 %/day
CCc1cccc2c3c([nH]c12)C(CC)(CC(=O)n1ccc2c(-c4cnn([C@H](CC#N)C5CCCC5)c4)ncnc21)OCC3 (stereo partly drawn); 1.93 %/day
CNS(=O)(=O)CC1CCC(N(C)c2ncnc3c2ccn3C(=O)[C@@H](C)c2ccc3cc(OC)ccc3c2)CC1 (stereo partly drawn); 10.11 %/day
CCS(=O)(=O)N1CC(CC#N)(n2cc(-c3ncnc4c3ccn4COC(=O)C(C)c3cccc(C(=O)c4ccccc4)c3)cn2)C1 (stereo not drawn); 0.01 %/day
Cc1c(Cl)cccc1Nc1ccccc1C(=O)OCn1ccc2c(-c3cnn([C@H](CC#N)C4CCCC4)c3)ncnc21; 0.22 %/day
CCS(=O)(=O)N1CC(CC#N)(n2cc(-c3ncnc4c3ccn4C(=O)Cc3c(C)n(C(=O)c4ccc(Cl)cc4)c4ccc(OC)cc34)cn2)C1; 7.63 %/day
CC(C(=O)n1ccc2c(-c3cnn([C@H](CC#N)C4CCCC4)c3)ncnc21)c1ccc(-c2ccccc2)c(F)c1 (stereo partly drawn); 5.01 %/day
CNS(=O)(=O)CC1CCC(N(C)c2ncnc3c2ccn3C(=O)[C@@H](C)c2ccc(CC(C)C)cc2)CC1 (stereo partly drawn); 7.48 %/day
CCS(=O)(=O)N1CC(CC#N)(n2cc(-c3ncnc4c3ccn4C(=O)C(C)c3cccc(C(=O)c4ccccc4)c3)cn2)C1 (stereo not drawn); 6.25 %/day
